Test: Pharmacokinetic study in mice (IV, PO)
Type: in vivo, mice (C57BL/6)
Details: female, C57BL/6; Table D; Mouse Plasma; PO; 10 mg/kg
Experimental Readout: half-life

Lookup result for O=C(N[C@H]1CC[C@@H](Oc2nc(N3CCOCC3)cc3ncccc23)CC1)c1cc[nH]c1 ; measured half-life: 2.76 h

---

Target: pDNA-PK ser2056 induction in FaDU spheroids (Homo sapiens)
Construct: host or cells: FaDu
Assay: Multicellular tumour spheroid + radiation, pDNA-PK inhibition, FaDU
Format: cell-based
Details: Example 8; spheroid; 20 Gy; read-out: Cell line: FaDU Immunohistochemical endpoint pDNA-PK inhibition EC50
pEC50: −log10 of the molar value.
# maps each entry to its pEC50

Some entries whose results are on file:
> print(dat)
                                   compound       reading
1  COc1ccc(C(=O)N[C@H]2CC[C@@H](Oc3nc(N4CCOCC4)cc4ncccc34)CC2)cc1  6.30 to 8.00
2  FC(F)(F)c1cn([C@H]2CC[C@@H](Oc3nc(N4CCOCC4)cc4ncccc34)CC2)cn1 [Compound 17k]  6.00 to 6.30
3  O=C(N[C@H]1CC[C@@H](Oc2nc(N3CCOCC3)cc3ncccc23)CC1)c1ccc(F)cc1  6.00 to 6.30

In plain terms, FC(F)(F)c1cncn1[C@H]1CC[C@@H](Oc2nc(N3CCOCC3)cc3ncccc23)CC1 [Compound 17j] has a documented pEC50 of 6.00 to 6.30

pEC50 recorded for this compound, COc1cnc(N[C@H]2CC[C@@H](Oc3nc(N4CCOCC4)cc4ncc(O)cc34)CC2)nc1 [Compound 19c] , is 6.00 to 6.30

---

System: FaDu cell line
Assay: Prodrug activation in hypoxic stirred tumour cell suspensions
Assay type: in vitro ADME
Conditions: 10 μM, 4 hours, 5% O2
Experimental Readout: Fraction of prodrug converted to active form, Oxic 5% O2

Compound	System Name	Reading
CC(c1cnc([N+](=O)[O-])n1C)N(c1cnc2cc(N3CCOCC3)nc(OC3CCC(Nc4ncccn4)CC3)c2c1)S(C)(=O)=O (centres unmarked) [LFA010]	FaDu cell line	C (C is 0.02 to 0.05)
Cn1c(CN(c2cnc3cc(N4CCOCC4)nc(OC4CCC(Nc5ccn6nccc6n5)CC4)c3c2)S(C)(=O)=O)cnc1[N+](=O)[O-] (centres unmarked) [LFA035]	FaDu cell line	D (D is 0 to 0.02)
Cn1c(Cn2ncnc2-c2cnc3cc(N4CCOCC4)nc(O[C@H]4CC[C@@H](Nc5ncccn5)CC4)c3c2)cnc1[N+](=O)[O-] [LFA139]	FaDu cell line	D (D is 0 to 0.02)
CC(c1cnc([N+](=O)[O-])n1C)N(c1cnc2cc(N3CCOCC3)nc(OC3CCC(Nc4ccn5nccc5n4)CC3)c2c1)S(C)(=O)=O (centres unmarked) [LFA036]	FaDu cell line	D (D is 0 to 0.02)
CC(c1cnc([N+](=O)[O-])n1C)N(c1cnc2cc(N3CCOCC3)nc(OC3CCC(Nc4ncc(C(F)(F)F)cn4)CC3)c2c1)S(C)(=O)=O (centres unmarked) [LFA024]	FaDu cell line	D (D is 0 to 0.02)
Cn1c(CN(c2cnc3cc(N4CCOCC4)nc(OC4CCC(n5ccnc5)CC4)c3c2)S(C)(=O)=O)cnc1[N+](=O)[O-] (centres unmarked) [LFA018]	FaDu cell line	D (D is 0 to 0.02)

Reported Fraction of prodrug converted to active form, Oxic 5% O2 ( Cn1c(CN(c2cnc3cc(N4CCOCC4)nc(OC4CCC(Nc5ncc(C#N)cn5)CC4)c3c2)S(C)(=O)=O)cnc1[N+](=O)[O-] (centres unmarked) [LFA026] ) = D (D is 0 to 0.02)

Recorded result, CC(c1cnc([N+](=O)[O-])n1C)N(c1cnc2cc(N3CCOCC3)nc(OC3CCC(Nc4ncc(C#N)cn4)CC3)c2c1)S(C)(=O)=O (centres unmarked) [LFA027] , Fraction of prodrug converted to active form, Oxic 5% O2: C (C is 0.02 to 0.05)

Measured Fraction of prodrug converted to active form, Oxic 5% O2 of Cn1c(CN(c2cnc3cc(N4CCOCC4)nc(OC4CCC(Nc5ncccn5)CC4)c3c2)S(C)(=O)=O)cnc1[N+](=O)[O-] (centres unmarked) [LFA008] : D (D is 0 to 0.02)

Record Cn1c(CN(c2cnc3cc(N4CCOCC4)nc(OC4CCC(Nc5ncc(C(F)(F)F)cn5)CC4)c3c2)S(C)(=O)=O)cnc1[N+](=O)[O-] (centres unmarked) [LFA023] , field Fraction of prodrug converted to active form, Oxic 5% O2: D (D is 0 to 0.02)

Recorded Fraction of prodrug converted to active form, Oxic 5% O2 (compound Cn1c(Cn2cnc(-c3cnc4cc(N5CCOCC5)nc(OC5CCC(Nc6ncccn6)CC5)c4c3)n2)cnc1[N+](=O)[O-] (centres unmarked) [LFA138] ): D (D is 0 to 0.02)
